Measured values drawn from the NIST ThermoML archive (doi:10.1016/j.jct.2013.09.017) for this set.

conditions: 303.15 K; 101 kPa; Liquid; Capillary tube (Ostwald / Ubbelohde) method
Property measured: viscosity (mPa·s)

Recorded results for 2 compounds are shown here.
INSERT INTO results (smiles_representation, property_measured, unit_info, readout_number) VALUES
  ('CCCCCCCC', 'viscosity', 'mPa·s', 0.481),
  ('CCCCCCCCCC', 'viscosity', 'mPa·s', 0.797);

1: CCCCCCCCC
2: CCCCCCC
3: CCCCCCCCN(CCCCCCCC)CCCCCCCC
# sort list by recorded viscosity, greatest to least Your task in answering is to list the labels in the requested order.
3, 1, 2

###

details: 283.15 K; 101 kPa; Liquid; Capillary tube (Ostwald / Ubbelohde) method
Property measured: viscosity (mPa·s)

Recorded results for 2 compounds are shown here.
INSERT INTO results (smiles_representation, property_measured, readout_number) VALUES
  ('CCCCCCCCCC', 'viscosity', 1.082),
  ('CCCCCCCC', 'viscosity', 0.613);

1: CCCCCCCCC
2: CCCCCCCCN(CCCCCCCC)CCCCCCCC
3: CCCCCCC
# sort list by recorded viscosity, greatest to least Your task in answering is to list the labels in the requested order.
2, 1, 3

###

conditions: 283.15 K; 101 kPa; Liquid; Vibrating tube method
Property measured: mass density (kg/m3)

INSERT INTO results (smiles_representation, readout_number) VALUES
  ('CCCCCCCC', 710.61),
  ('CCCCCCCCC', 725.58),
  ('CCCCCCC', 692.44),
  ('CCCCCCCCN(CCCCCCCC)CCCCCCCC', 817.08),
  ('CCCCCCCCCC', 737.54);

###

settings: 303.15 K; 101 kPa; Liquid; Vibrating tube method
Property measured: mass density (kg/m3)

INSERT INTO assay_data (smiles_representation, property_measured, unit_info, readout_number) VALUES
  ('CCCCCCC', 'mass density', 'kg/m3', 675.54),
  ('CCCCCCCCC', 'mass density', 'kg/m3', 710.06),
  ('CCCCCCCCCC', 'mass density', 'kg/m3', 722.44),
  ('CCCCCCCC', 'mass density', 'kg/m3', 694.5),
  ('CCCCCCCCN(CCCCCCCC)CCCCCCCC', 'mass density', 'kg/m3', 803.88);

###

details: 293.15 K; 101 kPa; Liquid; Vibrating tube method
Property measured: mass density (kg/m3)

INSERT INTO results (smiles_representation, readout_number) VALUES
  ('CCCCCCC', 684.05),
  ('CCCCCCCCCC', 730.01),
  ('CCCCCCCCN(CCCCCCCC)CCCCCCCC', 810.48),
  ('CCCCCCCCC', 717.86),
  ('CCCCCCCC', 702.6);

###

conditions: 293.15 K; 101 kPa; Liquid; Capillary tube (Ostwald / Ubbelohde) method
Property measured: viscosity (mPa·s)

INSERT INTO measurements (smiles_representation, readout_number) VALUES
  ('CCCCCCCC', 0.541),
  ('CCCCCCCCCC', 0.925);

a: CCCCCCCCC
b: CCCCCCC
c: CCCCCCCCN(CCCCCCCC)CCCCCCCC
With regard to viscosity, arrange the entries in ascending order, please. Your task in answering is to list the labels in the requested order.
b, a, c
(b: 0.42 mPa·s, a: 0.713 mPa·s, c: 9.957 mPa·s)

###

details: 298.15 K; 101 kPa; Liquid; Vibrating tube method
Property measured: mass density (kg/m3)

INSERT INTO results (smiles_representation, unit_info, readout_number) VALUES
  ('CCCCCCCCC', 'kg/m3', 713.95),
  ('CCCCCCCCN(CCCCCCCC)CCCCCCCC', 'kg/m3', 807.26),
  ('CCCCCCCC', 'kg/m3', 698.55),
  ('CCCCCCC', 'kg/m3', 679.78),
  ('CCCCCCCCCC', 'kg/m3', 726.22);

###

details: 298.15 K; 101 kPa; Liquid; Capillary tube (Ostwald / Ubbelohde) method
Property measured: viscosity (mPa·s)

Recorded results for 3 molecules are shown here.
INSERT INTO measurements (smiles_representation, property_measured, unit_info, readout_number) VALUES
  ('CCCCCCCCC', 'viscosity', 'mPa·s', 0.667),
  ('CCCCCCCC', 'viscosity', 'mPa·s', 0.51),
  ('CCCCCCC', 'viscosity', 'mPa·s', 0.397);

a: CCCCCCCCCC
b: CCCCCCCCN(CCCCCCCC)CCCCCCCC
Hi there, can you help? I need to know whether a or b has lower measured viscosity. // caller expects the label of the chosen entry
a
(a: 0.858 mPa·s, b: 8.392 mPa·s)
